# Test system: NCI-H322M lung
# assayName: NCI-60 one-dose screen, 48 h
# details: 10 µM unless noted
# Experimental: Growth inhibition of the NCI-H322M human Non-Small Cell Lung tumor cell line is measured as a screen for anti-cancer activity. Cells are grown in 96 well plates and exposed to the test compound for 48 hours. Compounds are tested at a single concentration, which is 10^-5 M for most compounds. The reported endpoint is percent growth (GI% or GIPRCNT), where numbers from 0 - 100% represent growth inhibition, and numbers from -100% - 0 represent cell death. […]
Compounds without any hit were thinned out: in the full panel of roughly 83,000, 20% have a hit. Active and inactive are the calls of the source. How the source made its calls: active means growth percent below 10; inactive means the rest.
Possible outcomes: active, inactive

[[record]]
compound = "CNC12C3C4C1C1C2C3C41C(=O)N[C@H](C(=O)N(C)[C@H](C[C@@H](OC(C)=O)c1nc(C(=O)N[C@@H](Cc2ccccc2)C[C@H](C)C(=O)OC)cs1)C(C)C)C1CC1 (some centres undefined)"
class = "inactive"

[[record]]
compound = "COC(=O)[C@@H](C)C[C@H](Cc1ccccc1)NC(=O)c1nc([C@@H](C[C@H](C(C)C)N(C)C(=O)[C@@H](NC(=O)[C@H]2CC(=O)CCN2C)C(C)C)OC(C)=O)sc1C(C)C"
class = "inactive"

[[record]]
compound = "O=C(O)C(O)C(O)C1[O][Sb]([c]2ccc([N+](=O)[O-])cc2)[O]C1CO (centres undefined)"
class = "inactive"

[[record]]
compound = "CC[C@H](NC(=O)[C@H]1CCCCN1C)C(=O)N(C)[C@H](C[C@@H](OC(C)=O)c1nc(C(=O)N[C@@H](Cc2ccccc2)C[C@H](C)C(=O)O)cs1)C(C)C"
class = "inactive"

[[record]]
compound = "N#C[Se]CCN1C(=O)c2ccccc2C1=O"
class = "inactive"

[[record]]
compound = "CC(=O)[O][Hg][c]1c(N)c(C)cc(C)c1F"
class = "inactive"

[[record]]
compound = "O=[N+]([O-])CC(c1ccccc1Cl)c1c(-c2ccccc2)[nH]c2ccccc12 (centres undefined)"
class = "inactive"

[[record]]
compound = "O=[As](O)(O)c1ccccc1[As](=O)(O)O"
class = "inactive"

[[record]]
compound = "COc1cccc2c1c(C(=O)c1ccco1)cn2Cc1ccc(F)cc1"
class = "inactive"

[[record]]
compound = "CC(C)=CC1C(C(=O)OCc2cccc(Oc3ccccc3)c2)C1(C)C (centres undefined)"
class = "inactive"

[[record]]
compound = "Cc1cc(N(CCCl)CCCl)ccc1C=Nc1ccc(-c2csc(Cc3ccccc3)n2)cc1"
class = "inactive"

[[record]]
compound = "CC(=O)Oc1ccccc1C(=O)NCCC[Se]C#N"
class = "active"

[[record]]
compound = "ClCCN(CCCl)Cc1ccc(Nc2ccnc3cc(Cl)ccc23)cc1"
class = "inactive"

[[record]]
compound = "CCC1(C)CC(CCNCc2ccccc2O)(c2ccc(C)cc2)CCO1 (centres undefined)"
class = "inactive"

[[record]]
compound = "Clc1ccc(N2COOC3(OOC2)C2CC4CC(C2)CC3C4)cc1"
class = "inactive"

[[record]]
compound = "C1CCC([PH+](C2CCCCC2)C2CCCCC2[PH+](C2CCCCC2)C2CCCCC2)CC1.O=C(C1[CH-]CCCC1)C1CCCC[N-]1.[Au] (centres undefined)"
class = "active"

[[record]]
compound = "O=C(CCCC1CCCCC1)OCC(Cl)(Cl)Cl"
class = "inactive"

[[record]]
compound = "C[C@]12CC[C@H]3[C@@H](CC4SC(N)=NC45C/C(=N/NC(N)=O)CC[C@]35C)[C@@H]1CCC2=O (some centres undefined)"
class = "inactive"

[[record]]
compound = "CCOC(=O)c1c(C)n(Cc2ccccc2)c2cc(CN(C)C)c(O)cc12"
class = "inactive"


Attribution: PubChem BioAssay (NCI)
